System: HCT 116 cells
Assay: Cell growth assay (CellTiter-Glo 2.0), HCT 116 MSI-H cell line
Settings: Homo sapiens, HCT-116, 120 h, read-out: Cell Growth Inhibition GI50 HCT-116
compounds and their reported GI50
Please give a number only; it is taken to be in nM.

Previously resolved entries follow.
[[record]]
compound = "CC(C)(C)c1ncc(C(=O)N[C@H](/C=C/S(C)(=O)=O)C2CCOCC2)c(Oc2ccccc2)n1 [Example 70]"
u = "nM"
quantitative_readout = 130

[[record]]
compound = "CS(=O)(=O)/C=C/[C@@H](NC(=O)c1cnc(C(F)(F)C(F)(F)F)nc1Oc1ccccc1)C1CC1 [Example 84]"
u = "nM"
quantitative_readout = 51.1

[[record]]
compound = "CS(=O)(=O)/C=C/[C@@H](NC(=O)c1cnc(N2CCC2)nc1Oc1ccccc1)C1CC1 [Example 181]"
u = "nM"
quantitative_readout = 88.4


Attention now shifts to the item below.
Please report the recorded GI50 for C[C@@H](/C=C/S(C)(=O)=O)NC(=O)c1cnc(C2(C(F)(F)F)CC2)nc1Oc1ccccc1 [Example 101] .
374

---

Biological target: WRN C727 (Homo sapiens, UniProt Q14191)
Construct: endogenous in cells; host or cells: OCI-AML2
Sequence (Q14191 whole entry): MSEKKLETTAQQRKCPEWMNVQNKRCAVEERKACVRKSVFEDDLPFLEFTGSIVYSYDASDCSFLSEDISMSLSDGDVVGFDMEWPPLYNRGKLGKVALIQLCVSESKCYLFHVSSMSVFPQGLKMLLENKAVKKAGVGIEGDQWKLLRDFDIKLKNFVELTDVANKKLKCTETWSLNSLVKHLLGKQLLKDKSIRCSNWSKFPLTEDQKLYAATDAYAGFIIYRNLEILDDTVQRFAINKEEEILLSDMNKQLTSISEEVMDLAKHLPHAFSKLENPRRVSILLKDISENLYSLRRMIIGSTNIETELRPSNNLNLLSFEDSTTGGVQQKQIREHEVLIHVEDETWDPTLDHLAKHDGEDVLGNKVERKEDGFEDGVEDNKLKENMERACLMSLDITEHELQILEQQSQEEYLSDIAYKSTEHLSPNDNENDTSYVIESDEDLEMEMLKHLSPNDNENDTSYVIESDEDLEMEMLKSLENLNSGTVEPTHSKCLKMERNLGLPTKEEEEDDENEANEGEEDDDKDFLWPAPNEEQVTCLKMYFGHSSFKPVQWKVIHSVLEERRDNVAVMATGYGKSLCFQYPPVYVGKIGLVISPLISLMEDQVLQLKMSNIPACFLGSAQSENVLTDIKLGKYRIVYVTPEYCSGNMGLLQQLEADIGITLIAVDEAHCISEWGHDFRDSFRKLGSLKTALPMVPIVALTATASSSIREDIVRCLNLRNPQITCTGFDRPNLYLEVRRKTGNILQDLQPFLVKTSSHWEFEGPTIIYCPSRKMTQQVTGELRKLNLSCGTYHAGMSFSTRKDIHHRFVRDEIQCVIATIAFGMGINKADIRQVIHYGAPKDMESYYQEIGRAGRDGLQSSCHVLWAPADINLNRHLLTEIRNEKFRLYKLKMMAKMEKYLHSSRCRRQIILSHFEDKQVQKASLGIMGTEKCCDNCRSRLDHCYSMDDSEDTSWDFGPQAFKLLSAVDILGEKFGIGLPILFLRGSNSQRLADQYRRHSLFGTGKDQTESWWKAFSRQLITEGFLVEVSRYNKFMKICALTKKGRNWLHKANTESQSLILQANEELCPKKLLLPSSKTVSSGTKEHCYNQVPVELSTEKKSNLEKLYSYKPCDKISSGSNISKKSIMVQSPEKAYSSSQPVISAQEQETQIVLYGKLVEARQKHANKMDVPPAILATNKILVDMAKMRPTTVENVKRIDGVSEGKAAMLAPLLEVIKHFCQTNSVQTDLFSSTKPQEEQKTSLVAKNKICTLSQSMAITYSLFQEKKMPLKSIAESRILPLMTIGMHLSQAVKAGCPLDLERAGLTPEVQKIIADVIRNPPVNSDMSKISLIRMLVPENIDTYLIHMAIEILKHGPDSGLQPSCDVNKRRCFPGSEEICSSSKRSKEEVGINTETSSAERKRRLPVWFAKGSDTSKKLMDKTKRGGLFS
Test: Target engagement, in situ (cell), OCI-AML2
Type: cell-based
Details: OCI-AML2 cells, read-out: OCI-AML2 WRN C727 TE50 in situ (cell)
OUTCOME_MEASURE: IC50
Record the result as number plus unit.

Example entries begin here.
[[record]]
molecule = "CCc1ncc(C(=O)NC/C=C/S(C)(=O)=O)c(Oc2ccccc2)n1 [Example 12]"
measured_target = "WRN C727 (Homo sapiens, UniProt Q14191)"
outcome_measure = "IC50"
result = "50000 nM"

[[record]]
molecule = "C[C@@H](/C=C/S(C)(=O)=O)NC(=O)c1cnc(C2CCC2)nc1Oc1ccccc1 [Example 44]"
measured_target = "WRN C727 (Homo sapiens, UniProt Q14191)"
outcome_measure = "IC50"
result = "260 nM"

[[record]]
molecule = "C[C@@H](/C=C/S(C)(=O)=O)NC(=O)c1cnc(C(C)(C)C)nc1OC1CCCCC1 [Example 154]"
measured_target = "WRN C727 (Homo sapiens, UniProt Q14191)"
outcome_measure = "IC50"
result = "140 nM"

[[record]]
molecule = "CS(=O)(=O)/C=C/[C@@H](NC(=O)c1cnc(C(F)(F)C2CC2)nc1Oc1ccccc1)C1CCC1 [Example 225]"
measured_target = "WRN C727 (Homo sapiens, UniProt Q14191)"
outcome_measure = "IC50"
result = "16 nM"

[[record]]
molecule = "C[C@@H](/C=C/S(C)(=O)=O)NC(=O)c1cc(C#N)c(C2CCCC2)nc1Oc1ccccc1 [Example 163]"
measured_target = "WRN C727 (Homo sapiens, UniProt Q14191)"
outcome_measure = "IC50"
result = "560 nM"


Enter reported IC50 observed with WRN C727 (Homo sapiens, UniProt Q14191) for C[C@@H](/C=C/S(C)(=O)=O)NC(=O)c1cnc(NC2CCCC2)nc1Oc1ccccc1 [Example 164]
21400 nM

---

Molecular target: WRN C727 (Homo sapiens, UniProt Q14191)
Construct: endogenous in cells; host or cells: OCI-AML2
Test: Target engagement, in vitro (lysate), OCI-AML2
Format: binding
Conditions: read-out: OCI-AML2 WRN C727 TE50 in vitro (lysate)
Entries annotated with measured IC50
Expressed in µM, but write only the number.

[[record]]
molecule = "CC(C)(C)c1ncc(C(=O)N[C@H](/C=C/S(C)(=O)=O)C2CC(F)(F)C2)c(Oc2ccccc2)n1"
u = "µM"
quantitative_readout = 0.5


Dear colleague, I am looking for the recorded IC50 of the following molecule: CN(C)C(=O)C[C@@H](/C=C/S(C)(=O)=O)NC(=O)c1cnc(C(C)(F)F)nc1Oc1ccccc1
10

Any idea what its IC50 is? The molecule is CC1(Cc2ncc(C(=O)N3CC(=CS(C)(=O)=O)C3)c(Oc3ccccc3)n2)CC1
2.06

Form field: reported IC50 of C[C@@H](/C=C/S(C)(=O)=O)NC(=O)c1cnc(OC2CCCC2)nc1Oc1ccccc1
22.6

Which IC50 is listed for CS(=O)(=O)C=C1CN(C(=O)c2cnc([C@H]3C[C@H](C)C3)nc2Oc2ccccc2)C1 (single isomer, unassigned) ?
3.3

Sample C[C@@H](/C=C/S(C)(=O)=O)NC(=O)c1cnc(C(C)(C)O)nc1Oc1ccccc1 — what was its IC50?
17.1

Field request: IC50 | item: C[C@@H](/C=C/S(C)(=O)=O)NC(=O)c1cnc(C2CC2)nc1OC1CCCC1
20

Name the recorded IC50 for COC[C@@H](/C=C/S(C)(=O)=O)NC(=O)c1cnc(C2CCCC2)nc1Oc1ccccc1 .
0.24

Reported IC50, molecule CS(=O)(=O)/C=C/[C@@H](NC(=O)c1cnc([C@H]2C[C@@H](C)C2)nc1Oc1ccccc1)C1CC1 (single isomer, unassigned) : ____
0.035

I would be grateful if you could share the reported IC50 for CCN(C)c1ncc(C(=O)N[C@H](/C=C/S(C)(=O)=O)C2CC2)c(Oc2ccccc2)n1 .
1.72
